experimental details: Inhibition of Enterococcus faecalis methionine aminopeptidase 1A using Met-AMC as substrate by Dixon method
Here the recorded pKi is given for each entry.
Scale explanation: pKi corresponds to minus log10 of a concentration expressed in moles per litre.

Which pKi value belongs to COC(=O)[C@@H](C)NC(=O)/C(O)=C/C(=O)c1ccccc1C ? 4.22

Which pKi value belongs to COC(=O)[C@@H](C)NC(=O)/C(O)=C/C(=O)c1oc2ccc(Br)cc2c1C ? 4.98

Which pKi value belongs to Cc1ccccc1C(=O)/C=C(\O)C(=O)O ? 4.20

* * *

experimental details: Inhibition of Streptococcus pneumoniae methionine aminopeptidase 1A using Met-AMC as substrate by Dixon method
quantity: pKi
Scale explanation: pKi corresponds to minus log10 of a concentration expressed in moles per litre.

These recorded examples may help you get a feel for the data.
CCOC(=O)/C(O)=C/C(=O)c1oc2ccc(Br)cc2c1C 4.17
COC(=O)[C@@H](C)NC(=O)/C(O)=C/C(=O)c1ccccc1C 4.28
CCOC(=O)/C(O)=C/C(=O)c1ccccc1C 4.01
Cc1c(C(=O)/C=C(\O)C(=O)N[C@H](C)C(=O)O)oc2ccc(Br)cc12 4.55
Cc1ccccc1C(=O)/C=C(\O)C(=O)N[C@H](C)C(=O)O 4.22
Cc1ccccc1C(=O)/C=C(\O)C(=O)O 4.06

Which pKi value belongs to Cc1c(C(=O)/C=C(\O)C(=O)O)oc2ccc(Br)cc12 ? 4.56

Which pKi value belongs to COC(=O)[C@@H](C)NC(=O)/C(O)=C/C(=O)c1oc2ccc(Br)cc2c1C ? 5.06

Which pKi value belongs to CCOC(=O)/C(O)=C/C(=O)c1ccc(Cl)cc1 ? 4.20

Just for reference, ChEMBL document CHEMBL4330067 is where these values come from.
